Origin of values: patent US3991052A

- assayText: toxicity (LD50) in mice, intraperitoneal
- measurementConditions: mouse, in vivo, ip, intraperitoneally

# compound, resultUnit, LD50
measured = [
    ("COC1c2cc(Cl)c(O)cc2ON2C(=O)C3NC(=O)C12SS3 (stereo not shown)", "mg/kg", 106),
]
